Taken from ChEMBL document CHEMBL1141013.

- SYSTEM: Calcium-activated potassium channel subunit alpha-1 (Homo sapiens)
- PROCEDURE DETAILS: Activation of human BKalpha channel expressed in CHOK1 cells assessed as increase in ionic current at 30 uM by patch clamp method relative to control
- Assay type: cell-based
- CONDITION PARAMETERS: CHO-K1
Activity less than 400% is yes; Activity greater than or equal to 400% is no.

LINE NOTATION	CLASSIFICATION
O=c1[nH]c2cc(C(F)(F)F)ccc2n1-c1cc(C(F)(F)F)ccc1O	yes
C=CCO/N=C1\C[C@H]2[C@](C)(C(=O)O)CCC[C@]2(C)c2cc(Cl)c(C(C)C)c(Cl)c21	no
CC(C)c1c(Cl)cc2c(c1Cl)/C(=N/O)C[C@H]1[C@](C)(C(=O)O)CCC[C@]21C	yes
C#CCO/N=C1\C[C@H]2[C@](C)(C(=O)O)CCC[C@]2(C)c2cc(Cl)c(C(C)C)c(Cl)c21	no
